Experiment: self-splicing fitness, log relative to wild type (ln ratio); higher = more splicing; Tetrahymena group I intron in knt gene, E. coli kanamycin selection, DiMSum; sequences stand for … in CUCUCU…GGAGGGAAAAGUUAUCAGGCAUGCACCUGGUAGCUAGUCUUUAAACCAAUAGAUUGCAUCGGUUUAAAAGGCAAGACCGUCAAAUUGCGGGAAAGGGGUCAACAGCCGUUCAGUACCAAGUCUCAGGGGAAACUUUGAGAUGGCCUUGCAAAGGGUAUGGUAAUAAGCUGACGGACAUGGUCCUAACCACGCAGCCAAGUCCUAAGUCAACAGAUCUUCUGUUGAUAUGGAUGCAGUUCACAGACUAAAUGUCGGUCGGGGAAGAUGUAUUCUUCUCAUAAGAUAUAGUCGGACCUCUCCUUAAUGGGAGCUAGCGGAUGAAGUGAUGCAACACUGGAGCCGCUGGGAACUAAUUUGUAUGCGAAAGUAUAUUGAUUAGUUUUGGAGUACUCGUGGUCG;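 note: selection with 25 µg/mL kanamycin versus none on LB agar overnight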
Settings: 30 °C
METRIC NAME: self-splicing fitness (ln)
One number for each entry.

BIOSEQUENCE: UGGUAGCAAUAUUACGUGAG
self-splicing fitness (ln): -1.05
//
BIOSEQUENCE: AUAGAGCAAUAUUACGUAGG
self-splicing fitness (ln): -2.32
//
BIOSEQUENCE: GCGUAGCAAUAUUACGGCCC
self-splicing fitness (ln): 0.00127
//
BIOSEQUENCE: UCAAAGCAAUAUUACGUAAG
self-splicing fitness (ln): -1.77
//
BIOSEQUENCE: AACAAGCAAUAUUACGUAUG
self-splicing fitness (ln): -3.33

Fill in self-splicing fitness (ln) for each of the 3 sequences listed.
1. AGGGAGCAAUAUUACGUAGA
2. GUGUAGCAAUAUUACGUAGA
3. UCCAAGCAAUAUUACGGAAA

Reply:
-3.05
-3.14
-2.19

====

Test: self-splicing fitness, log relative to wild type (ln ratio); higher = more splicing; Tetrahymena group I intron in knt gene, E. coli kanamycin selection, DiMSum; sequences stand for … in CUCUCU…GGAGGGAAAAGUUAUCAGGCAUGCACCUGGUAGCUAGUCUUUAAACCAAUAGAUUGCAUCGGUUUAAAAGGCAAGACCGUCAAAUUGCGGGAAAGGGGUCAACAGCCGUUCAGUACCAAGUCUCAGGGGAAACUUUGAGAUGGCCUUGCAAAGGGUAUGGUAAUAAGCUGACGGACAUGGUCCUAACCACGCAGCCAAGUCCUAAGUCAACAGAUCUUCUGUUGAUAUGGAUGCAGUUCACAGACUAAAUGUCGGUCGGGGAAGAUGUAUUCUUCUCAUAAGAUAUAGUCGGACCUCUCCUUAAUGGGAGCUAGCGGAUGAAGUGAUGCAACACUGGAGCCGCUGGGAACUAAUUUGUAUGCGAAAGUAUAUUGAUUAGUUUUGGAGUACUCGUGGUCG
Conditions: 37 °C
Give y when the value for self-splicing fitness (ln) is at least -1. Give n when it is less.

Completed entries (count: 6):
BIOSEQUENCE: CAUCAGCAAUAUUACGACUC
LABEL VALUE: y
//
BIOSEQUENCE: AUAAAGCAAUAUUACGUCAG
LABEL VALUE: y
//
BIOSEQUENCE: AAGUAGCAAUAUUACGAUUU
LABEL VALUE: y
//
BIOSEQUENCE: CUGUAGCAAUAUUACGUGUG
LABEL VALUE: y
//
BIOSEQUENCE: UUGUAGCAAUAUUACGCUCA
LABEL VALUE: y
//
BIOSEQUENCE: UCAAAGCAAUAUUACGAGUA
LABEL VALUE: y

Ask: Has GGACAGCAAUAUUACGGUAA a recorded self-splicing fitness (ln) greater than or equal to -1?
Reply: y

Ask: Has AUGCAGCAAUAUUACGCAGA a recorded self-splicing fitness (ln) greater than or equal to -1?
Reply: n

Ask: Has UGGUAGCAAUAUUACGUAUU a recorded self-splicing fitness (ln) greater than or equal to -1?
Reply: n

Ask: Has CGCGAGCAAUAUUACGCGGG a recorded self-splicing fitness (ln) greater than or equal to -1?
Reply: n

Ask: Has CCCAAGCAAUAUUACGCGCG a recorded self-splicing fitness (ln) greater than or equal to -1?
Reply: n
